- Tested on: Plasmodium berghei
- assay-text: Luciferase/luciferin-expressing antifolate-resistant parasites were used to infect a culture of HepG2 cells that were pre-incubated with compounds. Infected hepatocytes emit light due to the luciferase reaction. Assay results are presented as the percent inhibition of light emission compared to control. […]
- Type: functional
- assay-conditions: sporozoite, PBLUC_HILL_SLOPE 18.8, PBLUC_R_SQUARED 0.316, read-out: LUCIFERASE INFECTION ASSAY - IC50
pIC50: −log10 of the molar value.
readout-name: pIC50

>  <smiles-entry>
COc1cccc(N(C)S(=O)(=O)c2cccc3cc(C)cnc23)n1

>  <readout-value>
5.47

$$$$

Attribution: ChEMBL document CHEMBL4483862
